# Assay Method Text: recombinant barcode read abundance after kanamycin selection (control-corrected) (log10(CPM+1)); higher = more efficient recombination; sequences stand for … in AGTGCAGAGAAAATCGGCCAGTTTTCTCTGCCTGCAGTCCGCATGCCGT…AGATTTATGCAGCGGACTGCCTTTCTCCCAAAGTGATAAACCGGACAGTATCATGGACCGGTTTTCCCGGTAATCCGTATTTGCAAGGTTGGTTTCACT; site = the 11-nt target;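 note: IS621 recombinase and bridge RNA in Escherichia coli cells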
Kindly note that classification relies on recombinant barcode read abundance (log10) with these boundaries: bottom: < 0.2; middle: ≥ 0.2 and < 0.9; top: ≥ 0.9

Known results for sequences:
| Query Sequence | Assigned Class |
| --- | --- |
| GTGGTATCTTGGGTTCTAACCTGTTGCCT (site GTGGTATCTAG) | top |
| TAATGTACTTGGGTTCTAACCTGTTGCCT (site TAATGAACTAG) | bottom |
| CCGTTATCTTGGGTTCTAACCTGTTGCCT (site CCGGTATCTAG) | bottom |

Could you place AAGACCTCTTGGGTTCTAACCTGTTGCCT (site TAGACCTCTAG) in its proper category? Many thanks. top

Could you place ATTAAGTCTTGGGTTCTAACCTGTTGCCT (site ATTAAGTCTAG) in its proper category? Many thanks. middle

Could you place CATCAAGCTTGGGTTCTAACCTGTTGCCT (site CATCAAGCTAG) in its proper category? Many thanks. top

Could you place TAGTACTCTTGGGTTCTAACCTGTTGCTG (site TAGTACTCTCA) in its proper category? Many thanks. top

Could you place CTCTAGTCTTGGGTTCTAACCTGTTGCCT (site CTCTAGTCTAG) in its proper category? Many thanks. bottom

Could you place CGCCCTACTTGGGTTCTAACCTGTTGCTT (site CGCCCTACTAA) in its proper category? Many thanks. middle

Could you place AAAAGTCCTTGGGTTCTAACCTGTTGCCT (site AAGAGTCCTAC) in its proper category? Many thanks. bottom
